Reference source for all entries: paper PMC4489446

So I've got a bunch of compounds here, and I need their CC50 at 72 h values.
Assay: Cytotoxicity against mammalian cells
Format: cell-based
Details: human, HeLa-KB cells (subline of HeLa, ATCC CCL-17)
Numbers only here, please. The scale is µM.

Given O=[N+]([O-])C(Br)=Cc1ccc(Br)o1 [Furvina, 2-bromo-5-(2-bromo-2-nitrovinyl)-furan] , state its recorded CC50 at 72 h.
13.6

Given CC(=Cc1ccc(Br)o1)[N+](=O)[O-] [UC245, 2-bromo-5-(2-methyl-2-nitrovinyl)-furan] , state its recorded CC50 at 72 h.
16.7

Given COc1cc([C@@H]2c3cc4c(cc3[C@H](O)[C@H]3COC(=O)[C@H]23)OCO4)cc(OC)c1OC [podophyllotoxin, reference compound] , state its recorded CC50 at 72 h.
0.0053
